Taken from ChEMBL document CHEMBL5335807.

Test system: Human immunodeficiency virus 1
Assay: Antiviral activity against DRV-resistant HIV-1 assessed as inhibition of viral growth by single-round infection assay
Format: functional, organism-based
Settings: Human immunodeficiency virus 1, DRV
Recorded EC50 by entry
endpoint: EC50 (µM)

>  <substance.smiles>
CSc1ccc(S(=O)(=O)N(CC(C)C)C[C@@H](O)[C@H](Cc2ccccc2)NC(=O)Cc2cccc(O)c2)cc1

>  <endpoint>
EC50

>  <reported.measurement>
2.36

$$$$
>  <substance.smiles>
COc1ccc(S(=O)(=O)N(CC(C)C)C[C@@H](O)[C@H](Cc2ccccc2)NC(=O)Cc2cccc(O)c2)cn1

>  <endpoint>
EC50

>  <reported.measurement>
5.02

$$$$
>  <substance.smiles>
COc1ccc(S(=O)(=O)N(CC(C)C)C[C@@H](O)[C@H](Cc2ccccc2)NC(=O)Cc2ccc(O)c(O)c2)cc1

>  <endpoint>
EC50

>  <reported.measurement>
23.2

$$$$
>  <substance.smiles>
COc1ccc(S(=O)(=O)N(CC(C)C)C[C@@H](O)[C@H](Cc2ccccc2)NC(=O)Cc2cccc(O)c2)cc1

>  <endpoint>
EC50

>  <reported.measurement>
8.85

$$$$
